biological target: UniProt P35968; assay: VEGFR2 (KDR) kinase inhibition (literature data set); assay type: biochemical; details: −log IC50 of literature IC50
Measured KDR Actual pIC50 by item
Answer with a number only.

See these solved cases before continuing.
N#Cc1c(Oc2ccc(F)c(NC(=O)Cc3cccc(C(F)(F)F)c3)c2)ccc2nc(NC(=O)C3CC3)sc12 = 6.80
CC(=O)Nc1nc2ccc(N(C)c3ccc(F)c(NC(=O)c4cccc(OC(C)(C)C#N)c4Cl)c3)nc2s1 = 7.85
CC(C)(C#N)c1cccc(C(=O)Nc2cccc(Oc3ccc4nc(NC(=O)C5CC5)sc4c3[N+](=O)[O-])c2)c1 = 7.15

The compound N#Cc1c(Oc2ccc(F)c(NC(=O)Nc3cccc(C(F)(F)F)c3)c2)ccc2nc(NC(=O)C3CC3)sc12 showed KDR Actual pIC50 equal to 6.14

The compound N#Cc1c(Oc2ccc(F)c(NC(=O)Nc3ccc(C(F)(F)F)cc3)c2)ccc2nc(NC(=O)C3CC3)sc12 showed KDR Actual pIC50 equal to 6.18

The compound CC(C)(C#N)c1cccc(C(=O)Nc2cccc(Oc3ccc4nc(NC(=O)C5CC5)sc4c3C#N)c2)c1 showed KDR Actual pIC50 equal to 7.12

The compound CC(=O)Nc1nc2ccc(N(C)c3ccc(F)c(NC(=O)c4cccc(OC(C)(C)C#N)c4)c3)nc2s1 showed KDR Actual pIC50 equal to 8.00

====

Measured IC50 by item
biological target: B-Raf^V600E (Homo sapiens, UniProt P15056, V600E); test: B-Raf^V600E kinase inhibition (literature data set); format: biochemical; details: −log IC50 of literature IC50; read-out: B-Raf Actual pIC50 (converted)
Sequence (P15056 whole entry V600E): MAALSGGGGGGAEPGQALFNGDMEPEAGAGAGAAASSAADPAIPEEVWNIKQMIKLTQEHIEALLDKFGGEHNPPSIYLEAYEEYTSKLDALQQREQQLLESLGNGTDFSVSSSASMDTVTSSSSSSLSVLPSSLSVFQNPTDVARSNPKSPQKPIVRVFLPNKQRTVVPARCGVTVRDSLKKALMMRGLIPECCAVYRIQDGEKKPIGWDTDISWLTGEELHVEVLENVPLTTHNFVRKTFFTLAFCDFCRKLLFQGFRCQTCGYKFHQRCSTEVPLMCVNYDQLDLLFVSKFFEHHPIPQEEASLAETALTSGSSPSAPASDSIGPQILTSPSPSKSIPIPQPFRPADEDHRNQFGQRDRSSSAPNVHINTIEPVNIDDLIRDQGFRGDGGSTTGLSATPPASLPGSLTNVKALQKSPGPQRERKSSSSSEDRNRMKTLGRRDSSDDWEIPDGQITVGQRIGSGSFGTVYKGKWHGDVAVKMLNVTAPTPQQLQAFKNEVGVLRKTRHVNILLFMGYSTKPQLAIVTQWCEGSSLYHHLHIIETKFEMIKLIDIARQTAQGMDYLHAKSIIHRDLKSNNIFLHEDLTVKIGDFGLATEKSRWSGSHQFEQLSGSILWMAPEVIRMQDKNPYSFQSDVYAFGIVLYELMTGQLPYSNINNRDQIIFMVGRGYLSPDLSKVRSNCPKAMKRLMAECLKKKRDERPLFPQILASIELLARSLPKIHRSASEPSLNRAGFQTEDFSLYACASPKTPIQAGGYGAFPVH
Provide the reading as a plain figure in nM.

CC(C)(C#N)c1cccc(C(=O)Nc2cccc(Oc3ccc4nc(NC(=O)C5CC5)cn4c3)c2)c1 = 49
CC(C)(O)c1cccc(C(=O)Nc2cccc(Oc3ccc4nc(NC(=O)C5CC5)cn4n3)c2)c1 = 10
O=C(Nc1cccc(Oc2ccc3nc(NC(=O)C4CCCC4)cn3n2)c1)c1cccc(C(F)(F)F)c1 = 43.7
CC(=O)Nc1nc2cnc(Oc3cc(NC(=O)c4cccc(CCC#N)c4)ccc3C)nc2s1 = 51.3
CC(=O)Nc1nc2cnc(Oc3cc(NC(=O)c4cccc(CC(C)(C)C#N)c4)ccc3C)nc2s1 = 100
CC(C)(C#N)c1cccc(C(=O)Nc2cccc(Oc3ccc4nc(NC(=O)C5CC5)cn4n3)c2)c1 = 14.1
CC(C)(C#N)c1cccc(C(=O)Nc2cccc(Oc3ccc4nc(NC(=O)C5CC5)sc4c3)c2)c1 = 25.1
CC(=O)Nc1nc2ccc(Oc3ccc(F)c(NC(=O)c4cccc(C5(C#N)CC5)c4Cl)c3)nc2s1 = 6.31
O=C(Nc1cccc(Oc2ccc3nc(NC(=O)C4CC4)cn3n2)c1)c1cccc(C(F)(F)F)c1 = 7.59

Next, consider the following molecule.
The molecule COc1cccc(C(=O)Nc2cccc(Oc3ccc4nc(NC(=O)C5CC5)cn4n3)c2)c1 showed IC50 equal to 18.2

====

biological target: VEGFR2 (Homo sapiens, UniProt P35968); test: VEGFR2 (KDR) kinase inhibition (literature data set); format: biochemical; details: −log IC50 of literature IC50
Sequence (P35968 806-1171): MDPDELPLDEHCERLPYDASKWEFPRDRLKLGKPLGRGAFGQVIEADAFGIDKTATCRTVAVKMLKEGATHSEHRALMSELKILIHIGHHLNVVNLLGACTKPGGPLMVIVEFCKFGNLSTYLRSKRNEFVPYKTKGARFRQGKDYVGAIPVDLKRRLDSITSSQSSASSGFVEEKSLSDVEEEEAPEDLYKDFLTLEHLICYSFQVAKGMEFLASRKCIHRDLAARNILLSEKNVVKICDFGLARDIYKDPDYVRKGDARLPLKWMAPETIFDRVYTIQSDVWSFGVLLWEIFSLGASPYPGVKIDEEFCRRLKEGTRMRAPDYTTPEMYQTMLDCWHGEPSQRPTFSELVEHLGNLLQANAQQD
Measured KDR Actual pIC50 by item
Answer with a number only.

Recorded KDR Actual pIC50 for N#Cc1c(Oc2cccc(NC(=O)Cc3cccc(C(F)(F)F)c3)c2)ccc2nc(NC(=O)C3CC3)sc12 on VEGFR2 (Homo sapiens, UniProt P35968) was 6.82

Recorded KDR Actual pIC50 for N#Cc1c(Oc2cccc(NC(=O)Cc3ccc(C(F)(F)F)cc3)c2)ccc2nc(NC(=O)C3CC3)sc12 on VEGFR2 (Homo sapiens, UniProt P35968) was 6.72

Recorded KDR Actual pIC50 for CC(C)(C#N)c1cccc(C(=O)Nc2cccc(Oc3ccc4nc(NC(=O)C5CC5)sc4c3CO)c2)c1 on VEGFR2 (Homo sapiens, UniProt P35968) was 8.13

Recorded KDR Actual pIC50 for N#Cc1c(Oc2cccc(NC(=O)Cc3ccccc3C(F)(F)F)c2)ccc2nc(NC(=O)C3CC3)sc12 on VEGFR2 (Homo sapiens, UniProt P35968) was 7.00

Recorded KDR Actual pIC50 for N#Cc1c(Oc2cccc(NC(=O)Nc3ccccc3C(F)(F)F)c2)ccc2nc(NC(=O)C3CC3)sc12 on VEGFR2 (Homo sapiens, UniProt P35968) was 6.92

Recorded KDR Actual pIC50 for CN(c1ccc(F)c(NC(=O)c2cccc(OC(C)(C)C#N)c2Cl)c1)c1ccc2nc(NC(=O)C3CC3)sc2n1 on VEGFR2 (Homo sapiens, UniProt P35968) was 8.12

Recorded KDR Actual pIC50 for N#Cc1c(Oc2cccc(NC(=O)Nc3ccc(C(F)(F)F)cc3)c2)ccc2nc(NC(=O)C3CC3)sc12 on VEGFR2 (Homo sapiens, UniProt P35968) was 6.48

Recorded KDR Actual pIC50 for COC(=O)c1c(Oc2cccc(NC(=O)c3cccc(C(C)(C)C#N)c3)c2)ccc2nc(NC(=O)C3CC3)sc12 on VEGFR2 (Homo sapiens, UniProt P35968) was 7.48

====

Measured pIC50 by item
target: VEGFR2 (Homo sapiens); assay: VEGFR2 (KDR) kinase inhibition (literature data set); format: biochemical
// pIC50: -log10(molar conc.)

See these solved cases before continuing.
O=C(Nc1cccc(Oc2ccc3nc(NC(=O)C4CC4)cn3n2)c1)c1cccc(C(F)(F)F)c1 = 8.72
CCC(=O)Nc1cn2nc(Oc3cccc(NC(=O)c4cccc(C(F)(F)F)c4)c3)ccc2n1 = 8.77
CC(=O)Nc1nc2cnc(Oc3cc(NC(=O)c4cccc(OC(C)(C)C#N)c4)ccc3C)nc2s1 = 6.29
CC(C)(C)Oc1cccc(C(=O)Nc2cccc(Oc3ccc4nc(NC(=O)C5CC5)cn4n3)c2)c1 = 8.74
O=C(Nc1cccc(Oc2ccc3nc(NC(=O)C4CC4)cn3n2)c1)c1ccc(C(F)(F)F)cc1 = 8.72

The molecule CC(=O)Nc1nc2cnc(Oc3cc(NC(=O)c4cccc(CC(C)(C)C#N)c4)ccc3C)nc2s1 showed pIC50 equal to 6.52

The molecule N#CC1(c2cccc(C(=O)Nc3cccc(Oc4ccc5nc(NC(=O)C6CC6)sc5n4)c3)c2)CC1 showed pIC50 equal to 8.66

====

Measured IC50 by item
target: B-Raf^V600E (Homo sapiens, UniProt P15056, V600E); test: B-Raf^V600E kinase inhibition (literature data set); assay type: biochemical; settings: −log IC50 of literature IC50; read-out: B-Raf Actual pIC50 (converted)
Provide the reading as a plain figure in nM.

See these solved cases before continuing.
N#CC1(c2cccc(C(=O)Nc3cccc(Oc4ccc5nc(NC(=O)C6CC6)sc5n4)c3)c2Cl)CC1 [Compound 3-2] = 8.91
O=C(Nc1cccc(Oc2ccc3nc(NC(=O)C4CC4)cn3n2)c1)c1ccc(C(F)(F)F)cc1 [Compound 1-7] = 81.3
CC(=O)Nc1nc2cnc(Oc3cc(NC(=O)c4cccc(OC(C)(C)C#N)c4)ccc3C)nc2s1 [Compound 4-3] = 72.4
CC(C)(C#N)c1cccc(C(=O)Nc2cccc(Oc3ccc4nc(NC(=O)C5CC5)[nH]c4c3)c2)c1 [Compound 2-2] = 40.7

The molecule O=C(Nc1cccc(Oc2ccc3nc(NC(=O)C4CCC4)cn3n2)c1)c1cccc(C(F)(F)F)c1 [Compound 1-5] showed IC50 equal to 28.2

The molecule CC(C)(C#N)c1cccc(C(=O)Nc2cccc(Oc3ccc4nc(NC(=O)C5CC5)[nH]c4n3)c2)c1 [Compound 2-3] showed IC50 equal to 17

The molecule O=C(Nc1cccc(Oc2ccc3nc(NC(=O)C4CC4)cn3n2)c1)c1ccccc1C(F)(F)F [Compound 1-8] showed IC50 equal to 3720

The molecule CCC(=O)Nc1cn2nc(Oc3cccc(NC(=O)c4cccc(C(F)(F)F)c4)c3)ccc2n1 [Compound 1-3] showed IC50 equal to 6.92

The molecule O=C(Nc1cccc(Oc2ccc3nc(NC(=O)C4CCOCC4)cn3n2)c1)c1cccc(C(F)(F)F)c1 [Compound 1-1] showed IC50 equal to 42.7

The molecule CC(C)(C)Oc1cccc(C(=O)Nc2cccc(Oc3ccc4nc(NC(=O)C5CC5)cn4n3)c2)c1 [Compound 1-10] showed IC50 equal to 15.1

The molecule N#CC1(c2cccc(C(=O)Nc3cc(Oc4ccc5nc(NC(=O)C6CC6)sc5n4)ccc3F)c2Cl)CC1 [Compound 3-3] showed IC50 equal to 7.08

The molecule N#CC1(c2cccc(C(=O)Nc3cccc(Oc4ccc5nc(NC(=O)C6CC6)sc5n4)c3)c2)CC1 [Compound 3-1] showed IC50 equal to 3.02

The molecule CC(=O)Nc1cn2nc(Oc3cccc(NC(=O)c4cccc(C(F)(F)F)c4)c3)ccc2n1 [Compound 1-2] showed IC50 equal to 4.07

The molecule N#CC1(c2cccc(C(=O)Nc3cc(Oc4ccc5nc(NC(=O)C6CC6)sc5n4)ccc3Cl)c2Cl)CC1 [Compound 3-4] showed IC50 equal to 42.7

The molecule Cn1c(NC(=O)C2CC2)nc2ccc(Oc3cccc(NC(=O)c4cccc(C(C)(C)C#N)c4)c3)nc21 [Compound 2-4] showed IC50 equal to 200
